- Tested on: MDA-MB-468 breast
- experimentNotes: NCI-60 one-dose screen, 48 h (100 = growth as untreated, 0 = no growth, -100 = all killed)
- cond: 10 µM unless noted
The panel holds about 83,000 compounds, 20% with a hit somewhere; the sample as a whole holds those more often.
// classify: if (growth < 80%) Yes else No

# strict comparison: is reported growth < 80%? input = "Cc1nc(-c2cc3ccccc3oc2=O)ccc1C(=O)/C=C/c1ccc(N2CCOCC2)cc1" Yes

Can you handle "CC1CCN(Cc2ccc(NC(=O)c3cc4ccc5cccnc5c4[nH]3)cc2)CC1" next? Yes

Same for "Ic1ccccc1I" No

// query: CCOC(=O)c1c(C)nn(CC(O)c2ccccc2)c1NC(=O)Nc1cccc(F)c1 (stereo not given) No

Subsequent entry: "COc1cc(/C=C/C(=O)c2ccc(Nc3nc(Nc4ccccc4)nc(Nc4ccc(Cl)cc4)n3)cc2)cc(OC)c1OC" Yes

###

- System: MDA-MB-468 breast
- experimentNotes: NCI-60 one-dose screen, 48 h (100 = growth as untreated, 0 = no growth, -100 = all killed)
- cond: 10 µM unless noted
Compounds without any hit were thinned out: in the full panel of roughly 83,000, 20% have a hit.
Note to self: growth under 50% means 1 (yes), ties and anything higher get 0 (no).

Please determine if "COc1ccc(-c2cc(-c3ccc(OC)c(OC)c3)nc(SCCCC(=O)NO)n2)cc1" is below 50% in terms of growth. 1 (yes)

Try this compound too: "CN(c1ccccc1)c1ncnc2c1ncn2C" 0 (no)

How about this compound: "CN(C)c1ccc(/C=C/c2ccnc3ccccc23)cc1" 1 (yes)

Next compound: "CCCSc1nc(Nc2ccc(/C(C)=N\NC(N)=S)cc2)c(C#N)c(-c2ccccc2)n1" 0 (no)

// repeat for "C=C(C)[C@@H]1C[C@H](O)Cc2cc(Cl)cc(Cl)c2N1" and report 0 (no)

Next compound: "CN1CCN(CCCOc2cccc3nc(Nc4cc(Cl)cc(Cl)c4)ccc23)CC1" 1 (yes)

Please do the same for "CN(C)CCCN=c1cc2c(=O)n(CCCN(C)C)c(=O)c3c(NCCCN(C)C)cc4c(O)n(CCCN(C)C)c(=O)c1c4c3-2" as well. 1 (yes)

Next record, please: CC(c1ccccn1)C(C)(O)C(C)c1ccccn1 (stereo not given) 0 (no)

// repeat for "COc1cc(C(=O)O/N=C(\N)Cc2cccc3ccccc23)cc(OC)c1OC" and report 1 (yes)

// next record O=C1Nc2ccc(Br)cc2C12Oc1ccccc1C1CC(c3ccc(F)cc3)=NN12 (stereo not given) 0 (no)

Request: "CCN(CCCCCCN1CC(=O)N(CCCCCCN(CC)Cc2ccccc2OC)CC1=O)Cc1ccccc1OC" 0 (no)

Query "CCCCn1c(-c2ccc(O)cc2)cn2c3c(=O)[nH]c(=O)n(C)c3nc12" next 1 (yes)

For CC1C(=NC(=O)c2cnccn2)C(C)C(c2ccc(Cl)cc2)NC1c1ccncc1 (stereo not given) then? 0 (no)

Entry to check: "COc1ccc(C(=O)/C=C/c2cc3ccccc3[nH]c2=O)cc1" 1 (yes)

How about "O=C(O)c1ccccc1Oc1cc(-c2ccco2)nc(OCCBr)n1" ? 0 (no)

Could you do the same for O=C(c1ccc(O)cc1)C1[C@H](c2ccc(Cl)cc2)[C@@H](c2ccccc2)NC12C(=O)Nc1ccc(Cl)cc12 (stereo not given in full) , please? 1 (yes)

Again, but for "Nc1ccccc1NC(=O)c1ccc(NC(=O)C/C=C/c2cccnc2)cc1" 1 (yes)

Proceed to "CCN1/C(=C/C=C/c2n(-c3ccccc3)c3ccc(-c4nc5ccccc5s4)cc3[n+]2CC)N(c2ccccc2)c2ccc(-c3nc4ccccc4s3)cc21" 1 (yes)

Same question, "COc1ccc(C(=O)N2c3ccccc3Sc3ccccc32)c(OC)c1" this time 1 (yes)

###

- System: MDA-MB-468 breast
- experimentNotes: NCI-60 one-dose screen, 48 h (100 = growth as untreated, 0 = no growth, -100 = all killed)
- cond: 10 µM unless noted
- Protocol: Growth inhibition of the MDA-MB-468 human Breast tumor cell line is measured as a screen for anti-cancer activity. Cells are grown in 96 well plates and exposed to the test compound for 48 hours. Compounds are tested at a single concentration, which is 10^-5 M for most compounds. The reported endpoint is percent growth (GI% or GIPRCNT), where numbers from 0 - 100% represent growth inhibition, and numbers from -100% - 0 represent cell death. […]
The panel holds about 83,000 compounds, 20% with a hit somewhere; the sample as a whole holds those more often. Calls of active or inactive are those of the source. How the source made its calls: active means growth percent below 10; inactive means the rest.
Please go through the items and note down their growth.

State the recorded growth for this entry: "CCOC(=O)CC(=O)OC" 102% (inactive)

What about this compound? "O=C(/C=C/c1sc(Cl)nc1Cl)c1ccc(F)cc1" 40.9% (inactive)

Same again, this time with COc1ccc(C(=O)C2OC3=C(C(=O)CC(C)(C)C3)C2c2cccc(Oc3ccccc3)c2)cc1 (configuration not stated) 94.3% (inactive)

Same lookup for "COc1ccc(OC)c(NC2=C(Cl)C(=O)C(C)=C(C)C2=O)c1" , please. -31.6% (active)

Note, next up: "O=C(Nc1ccc(Cl)cc1Cl)Nc1ccc(-c2cccnc2)cc1N1CCC(CO)CC1" 23% (inactive)

Same again, this time with "O/N=C/c1cccs1" 106% (inactive)

Another compound to check: CCCCCCCCC1OC1CCCCCCCC(=O)O (configuration not stated) 89.9% (inactive)

Also, "CC(=O)c1ccc(-n2cc(CN3CCN(c4cc5c(cc4F)c(=O)c(C(=O)O)cn5C4CC4)CC3)nn2)cc1" please. 72.5% (inactive)

// repeat for "OC[C@@H](O)[C@@H](O)CO" and report 102% (inactive)

Param item: "COc1cccc(-c2nnc(N)o2)c1" 90.3% (inactive)

"COC(=O)[C@@H]1CC[C@]2(C)[C@H](CC[C@@H]3O[C@@]32C)[C@@]1(C)CC(=O)c1ccoc1" ? 95.7% (inactive)

Next: "Cc1cn(C2CCCCC2)c(=O)[nH]c1=O" 105% (inactive)

Okay, and COc1ccc(C2CC(n3nnnc3-c3ccccc3)=NN2)cc1 (configuration not stated) ? 64.5% (inactive)

And then "O=C(COc1ccc(-c2nc3cc(Cl)c(Cl)cc3[nH]2)cc1)N=Nc1c(O)[nH]c2ccc(Cl)cc12" , what is it? 68.5% (inactive)

And then "COc1ccc(CNCCN2C(=O)c3ccc4c5c(ccc(c35)C2=O)C(=O)N(CCNCc2ccc(OC)cc2)C4=O)cc1" , what is it? -94.3% (active)

Now give it for Fc1ccc(C2CC(c3cccc(Nc4ccncc4)c3)=NN2c2ccccc2)cc1 (configuration not stated) too. -2.33% (active)

Now the same for "CSc1nc(S(C)(=O)=O)nc2[nH]c(=O)[nH]c12" 103% (inactive)

Again, but for "COc1cccc(-c2nn(-c3ccccc3)cc2-c2ccnc(NCCCN)c2)c1" 17.4% (inactive)

Could you do the same for "COCCOc1ccc(-c2csc(NC(C)=O)n2)cc1NS(=O)(=O)c1cccc2c(N(C)C)cccc12" , please? 90.3% (inactive)

Queued: "CN1CCN(Cc2ccc(NC(=O)c3cncc(C#Cc4[nH]nc5ncncc45)c3)cc2C(F)(F)F)CC1" 58% (inactive)

Also need "COCCOc1ccc(-c2nc3ccc(-c4nc5ccc(N6CCN(C)CC6)cc5[nH]4)cc3[nH]2)cc1" , thanks. -22.5% (active)

Lookup "CCN(CC)c1ccc(CNc2cc(C)nc3ccc(OC)cc23)cc1" 2.98% (active)

Please do the same for "COc1ccc(-c2nc(SCC(=O)Nc3nc4ccc(C)cc4s3)[nH]c(=O)c2C#N)cc1OC" as well. 100% (inactive)

Same lookup for "c1ccc2cc3c(Nc4ccc(N5CCOCC5)cc4)ccnc3cc2c1" , please. 87.9% (inactive)

Try the compound "COc1ccc(/C=C2/C(=O)ON=C2C)cc1" 103% (inactive)

Check "C=CCOc1cccc(/C=C/C(=O)c2sc(Nc3cccnc3)nc2C)c1" too. 47.5% (inactive)

Same thing, different compound: "O=S(=O)(Nc1ccc(Br)c(Cl)c1)c1ccc(-c2cnc(C3CC3)o2)cc1" -23.9% (active)

Let us now turn to "Cc1nn(CC(=O)O)c2c1C(=O)CC(C)(C)C2" 106% (inactive)

Input "Cn1c2c(c3ccccc31)CCN1C[C@@H]3CCCC[C@H]3C[C@@H]21" -16.1% (active)

Again, but for "CCCCN(CCC)CCCCCCCCCCN1CCCc2ccccc21" 65.6% (inactive)

Same question, "COc1cccc(-c2nc3sccn3c2-c2ccnc(NCCCNS(=O)(=O)c3ccc(F)cc3)c2)c1" this time 13.3% (inactive)

// query: "COc1ccc2oc3c4[nH]c5ccccc5c4c4c(c3c2c1)C(=O)N(O)C4=O" 104% (inactive)

Entry "S=c1[nH]c2cc(Cl)ccc2s1" please 108% (inactive)

Try the compound "Clc1ccc(-c2cn3cc(Cc4ccc(Cl)c(Cl)c4)sc3n2)cc1" 80.5% (inactive)

Moving on to "COc1ccc(-c2nc3cccc(O)c3c(=O)n2Cc2ccccc2)cc1COc1ccc(NC(C)=O)cc1" 71.9% [3 µM] (inactive)

Now this one: "C=CCn1c(SCC(=O)Nc2cccc(C(=O)/C=C/c3ccc(Br)cc3)c2)nc2ccccc2c1=O" 99.6% (inactive)

And the next one, "CCc1cccc(CC)c1NC(=O)c1sc2nc3c(cc2c1N)CCCC3" ? 79.3% (inactive)

Entry "COc1cc(/C(=C2/O[C@@H]([C@H]3COC(C)(C)O3)[C@H]3OC(C)(C)O[C@@H]23)c2ccc3c(c2)OCO3)cc(OC)c1OC" please 69.6% (inactive)

Can you check "CNC(=O)c1cc(Oc2ccc(NC(=O)c3[nH]c(SC)nc3-c3ccc(F)cc3)cc2)ccn1" next? 70.9% (inactive)

One more compound: "O=S(=O)(NCCCNc1nccc(-c2[nH]c(-c3ccccc3)nc2-c2ccc(Cl)c(O)c2)n1)c1cccc2ccccc12" 36.7% (inactive)

Try the compound COC(=O)C1NC(=S)N(c2ccc(Cl)cc2)C1/C=C/c1ccccc1 (configuration not stated) 108% (inactive)

What would you report for CCNC(=O)N1CCc2c(Br)c3c(c(OC)c2C1Cc1ccc(OC)cc1)OCO3 (configuration not stated) ? 19.2% (inactive)

Reference for the values: PubChem BioAssay (NCI)
